Sequence of the target: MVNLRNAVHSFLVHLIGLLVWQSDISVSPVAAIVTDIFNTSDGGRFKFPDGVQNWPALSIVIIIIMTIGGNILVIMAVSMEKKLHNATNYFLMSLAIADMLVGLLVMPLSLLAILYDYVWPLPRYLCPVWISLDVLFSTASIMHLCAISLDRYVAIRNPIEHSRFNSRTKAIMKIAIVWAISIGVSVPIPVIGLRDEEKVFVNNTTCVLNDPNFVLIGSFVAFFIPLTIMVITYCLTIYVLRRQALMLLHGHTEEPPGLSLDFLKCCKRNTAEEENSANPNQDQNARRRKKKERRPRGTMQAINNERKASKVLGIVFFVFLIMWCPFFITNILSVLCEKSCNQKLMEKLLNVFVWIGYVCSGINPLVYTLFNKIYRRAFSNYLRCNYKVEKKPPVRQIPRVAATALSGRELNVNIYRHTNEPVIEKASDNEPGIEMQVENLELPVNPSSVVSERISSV
Measured pIC50 accompanies every entry in the list below.
pIC50 field: float, defined as -log10 of concentration (mol/L).

{"Mol": "O=C(CCCN1CCN(c2cccc(C(F)(F)F)c2)CC1)NCc1nc2cc(F)ccc2c(=O)n1-c1ccccc1", "Experimental Endpoint": "pIC50", "Endpoint Result": 5.89}
{"Mol": "CCOc1ccccc1N1CCN(CCCC(=O)NCc2nc3ccc(F)cc3c(=O)n2-c2ccccc2)CC1", "Experimental Endpoint": "pIC50", "Endpoint Result": 5.80}

// switching to the query compound
Query: Data request, read-out pIC50, for Cc1cccc(N2CCN(CCCC(=O)NCc3nc4ccc(F)cc4c(=O)n3-c3ccccc3)CC2)c1C
Response: 7.10

----------
Listed here are compounds together with their documented pIC50.
# System Name: D(2) dopamine receptor (Homo sapiens, UniProt P14416)
# Sequence (P14416 whole entry): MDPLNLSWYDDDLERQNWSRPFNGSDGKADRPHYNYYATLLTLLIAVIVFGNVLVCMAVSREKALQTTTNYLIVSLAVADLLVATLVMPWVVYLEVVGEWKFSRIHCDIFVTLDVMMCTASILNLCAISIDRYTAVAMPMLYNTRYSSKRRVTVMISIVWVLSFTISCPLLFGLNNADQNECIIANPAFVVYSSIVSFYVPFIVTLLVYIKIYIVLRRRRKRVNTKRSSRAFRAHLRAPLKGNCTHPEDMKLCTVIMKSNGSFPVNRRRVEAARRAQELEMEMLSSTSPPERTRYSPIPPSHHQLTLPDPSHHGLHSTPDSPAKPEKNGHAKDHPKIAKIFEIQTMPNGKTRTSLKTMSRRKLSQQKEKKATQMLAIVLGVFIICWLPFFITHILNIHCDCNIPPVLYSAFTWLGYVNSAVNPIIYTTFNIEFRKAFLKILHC
Hey, just a heads up that pIC50 is the negative log base 10 of the concentration in molar.

{"Mol": "COc1ccccc1N1CCN(CCCC(=O)NCc2nc3ccc(F)cc3c(=O)n2-c2ccccc2)CC1", "System Name": "D(2) dopamine receptor (Homo sapiens, UniProt P14416)", "Endpoint Result": 5.28}

Query: # returns recorded pIC50 (system: D(2) dopamine receptor (Homo sapiens, UniProt P14416)) for Cc1cccc(N2CCN(CCCC(=O)NCc3nc4ccccc4c(=O)n3-c3ccccc3)CC2)c1C
Response: 5.16

Query: // map Cc1cccc(N2CCN(CCCC(=O)NCc3nc4ccc(F)cc4c(=O)n3-c3ccccc3)CC2)c1C to recorded pIC50 (system: D(2) dopamine receptor (Homo sapiens, UniProt P14416))
Response: 5.40

----------
# System Name: 5-hydroxytryptamine receptor 1A (Homo sapiens, UniProt P08908)
# Sequence (P08908 whole entry): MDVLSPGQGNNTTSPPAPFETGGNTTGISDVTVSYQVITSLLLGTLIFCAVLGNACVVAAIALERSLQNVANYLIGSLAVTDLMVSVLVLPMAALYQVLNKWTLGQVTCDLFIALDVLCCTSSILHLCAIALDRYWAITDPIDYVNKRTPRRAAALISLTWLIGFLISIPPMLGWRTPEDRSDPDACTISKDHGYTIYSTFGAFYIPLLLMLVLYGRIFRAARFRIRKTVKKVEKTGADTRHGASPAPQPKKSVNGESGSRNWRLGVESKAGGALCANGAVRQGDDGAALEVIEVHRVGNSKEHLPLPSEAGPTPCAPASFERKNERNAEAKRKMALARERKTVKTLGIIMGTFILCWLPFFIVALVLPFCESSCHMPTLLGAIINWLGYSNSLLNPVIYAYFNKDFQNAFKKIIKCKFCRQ
Catalogue of pIC50 readings, one per entry.
FYI, pIC50 means -log10 of a concentration in mol per litre.

Query: Record O=C(CCCN1CCN(c2cccc(C(F)(F)F)c2)CC1)NCc1nc2cc(F)ccc2c(=O)n1-c1ccccc1 : what is its pIC50 with 5-hydroxytryptamine receptor 1A (Homo sapiens, UniProt P08908)?
Response: 6.85

Query: Observed pIC50 on 5-hydroxytryptamine receptor 1A (Homo sapiens, UniProt P08908) for Cc1cccc(N2CCN(CCCC(=O)NCc3nc4ccc(F)cc4c(=O)n3-c3ccccc3)CC2)c1C , please.
Response: 6.66
